target: maltase; assay: In vitro maltase inhibition (rat intestinal mucosa α-glucosidase, glucose assay kit); details: read-out: IC50 against maltase; Figure 4; maltose 1 mmol/L, 37 °C, 20 min
The following molecules are shown together with reported IC50 values.
Write the number in µM without appending the unit.

• O=C(/C=C/c1ccc(O)c(O)c1)O[C@@H]1C[C@](O)(C(=O)O)C[C@@H](O)[C@H]1O = 115
• O=C(C=Cc1ccc(O)c(O)c1)OC1CC(O)(C(=O)O)CC(O)C1O (stereo not shown) = 87.7
• O=C(C=Cc1ccc(O)c(O)c1)OC1C(O)CC(O)(C(=O)O)CC1O (stereo not shown) = 109

Pending molecule:
Answer with the recorded IC50 for the molecule listed here: C[C@H]1O[C@H](O[C@H]2[C@H](O)[C@@H](O)[C@@H](O[C@H]3[C@H](O)[C@@H](O)C(O)O[C@@H]3CO)O[C@@H]2CO)[C@H](O)[C@@H](O)[C@@H]1N[C@H]1C=C(CO)[C@@H](O)[C@H](O)[C@H]1O (stereo partly shown) 0.26

----------
The following molecules are shown together with reported IC50 values.
target: sucrase (Rattus norvegicus, UniProt P23739); assay: In vitro sucrase inhibition (rat intestinal mucosa α-glucosidase, glucose assay kit); details: IC50 against sucrase, Figure 4; sucrose 50 mmol/L, 37 °C, 20 min
Sequence (P23739 whole entry): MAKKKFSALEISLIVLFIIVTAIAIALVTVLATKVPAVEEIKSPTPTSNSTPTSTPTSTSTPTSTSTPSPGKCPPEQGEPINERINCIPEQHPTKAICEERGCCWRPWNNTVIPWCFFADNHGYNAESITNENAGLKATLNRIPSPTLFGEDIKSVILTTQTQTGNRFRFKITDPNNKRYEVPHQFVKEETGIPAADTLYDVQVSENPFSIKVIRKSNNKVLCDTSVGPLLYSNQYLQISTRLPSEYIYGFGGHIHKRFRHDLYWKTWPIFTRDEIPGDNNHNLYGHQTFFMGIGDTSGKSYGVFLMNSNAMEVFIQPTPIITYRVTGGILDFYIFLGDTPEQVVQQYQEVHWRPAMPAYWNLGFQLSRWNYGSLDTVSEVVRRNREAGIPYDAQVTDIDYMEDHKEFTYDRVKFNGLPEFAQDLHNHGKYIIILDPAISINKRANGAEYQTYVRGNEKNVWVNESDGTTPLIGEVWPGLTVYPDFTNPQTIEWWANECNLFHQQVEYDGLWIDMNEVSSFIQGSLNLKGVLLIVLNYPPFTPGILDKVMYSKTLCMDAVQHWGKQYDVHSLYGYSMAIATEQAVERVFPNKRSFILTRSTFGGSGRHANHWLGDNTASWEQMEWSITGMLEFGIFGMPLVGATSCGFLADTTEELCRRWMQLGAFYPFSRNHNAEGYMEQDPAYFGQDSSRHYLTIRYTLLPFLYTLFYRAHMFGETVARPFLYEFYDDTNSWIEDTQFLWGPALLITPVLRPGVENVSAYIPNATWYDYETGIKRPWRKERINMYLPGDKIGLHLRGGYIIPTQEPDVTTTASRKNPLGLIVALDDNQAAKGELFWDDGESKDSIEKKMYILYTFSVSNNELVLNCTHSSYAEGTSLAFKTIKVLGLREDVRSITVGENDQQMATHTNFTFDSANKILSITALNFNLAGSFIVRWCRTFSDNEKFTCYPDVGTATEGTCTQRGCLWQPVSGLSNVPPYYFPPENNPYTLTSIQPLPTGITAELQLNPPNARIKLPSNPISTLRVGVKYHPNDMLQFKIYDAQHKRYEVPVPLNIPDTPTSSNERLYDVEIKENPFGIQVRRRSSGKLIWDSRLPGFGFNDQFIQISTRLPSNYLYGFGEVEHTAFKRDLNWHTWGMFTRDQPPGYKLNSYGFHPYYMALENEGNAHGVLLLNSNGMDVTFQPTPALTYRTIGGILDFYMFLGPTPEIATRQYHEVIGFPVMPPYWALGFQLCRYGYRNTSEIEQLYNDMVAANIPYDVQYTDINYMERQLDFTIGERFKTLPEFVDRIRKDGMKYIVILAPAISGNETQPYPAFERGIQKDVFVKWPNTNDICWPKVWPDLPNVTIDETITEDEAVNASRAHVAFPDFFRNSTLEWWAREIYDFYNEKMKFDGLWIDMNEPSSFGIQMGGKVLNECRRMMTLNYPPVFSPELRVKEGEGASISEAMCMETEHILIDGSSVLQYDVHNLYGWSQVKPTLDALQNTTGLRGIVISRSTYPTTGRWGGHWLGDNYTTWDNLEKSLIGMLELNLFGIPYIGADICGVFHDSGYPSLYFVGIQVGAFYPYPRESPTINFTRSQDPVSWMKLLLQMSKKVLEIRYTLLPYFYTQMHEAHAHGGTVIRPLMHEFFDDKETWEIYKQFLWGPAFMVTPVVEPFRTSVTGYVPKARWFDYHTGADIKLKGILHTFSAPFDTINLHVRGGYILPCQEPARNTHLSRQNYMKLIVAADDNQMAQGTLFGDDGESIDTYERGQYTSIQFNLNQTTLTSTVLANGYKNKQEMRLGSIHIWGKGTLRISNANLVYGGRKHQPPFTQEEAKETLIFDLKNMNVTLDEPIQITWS
Write the number in µM without appending the unit.

These recorded examples may help you get a feel for the data.
- O=C(/C=C/c1ccc(O)c(O)c1)O[C@@H]1C[C@](O)(C(=O)O)C[C@@H](O)[C@H]1O [CGA, chlorogenic acid]: 126
- O=C(C=Cc1ccc(O)c(O)c1)OC1C(O)CC(O)(C(=O)O)CC1O (stereo not drawn) [CCGA, cryptochlorogenic acid]: 110

Pending molecule:
Answer with the recorded IC50 for the molecule listed here: O=C(C=Cc1ccc(O)c(O)c1)OC1CC(O)(C(=O)O)CC(O)C1O (stereo not drawn) [NCGA, neochlorogenic acid] 130

Values compiled from paper PMC12388904.
